The origin of these recorded values is patent US7534897B2.

IC50 values by entry
Protein target, amino acids: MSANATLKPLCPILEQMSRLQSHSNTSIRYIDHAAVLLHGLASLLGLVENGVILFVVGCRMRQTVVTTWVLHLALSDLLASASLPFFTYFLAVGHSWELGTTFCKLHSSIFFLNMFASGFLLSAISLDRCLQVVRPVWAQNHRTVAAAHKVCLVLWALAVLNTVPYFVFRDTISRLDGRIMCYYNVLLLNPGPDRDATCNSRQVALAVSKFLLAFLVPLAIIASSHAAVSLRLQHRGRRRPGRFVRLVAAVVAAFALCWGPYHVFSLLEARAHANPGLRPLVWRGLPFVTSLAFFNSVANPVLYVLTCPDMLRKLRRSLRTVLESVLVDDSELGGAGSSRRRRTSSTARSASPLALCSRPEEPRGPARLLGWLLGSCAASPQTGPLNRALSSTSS
Entry rule: numbers only, all in nM.

Solved entries:
COMPOUND	IC50, nM
CN(C1CCc2c(c3ccccc3n2CC(=O)O)C1)S(=O)(=O)c1cccs1 (single isomer, unassigned; (+)) [(+)-Ib-29]	4.9
O=C(O)Cn1cc(CCN(Cc2cccs2)S(=O)(=O)c2ccc(F)cc2)c2ccccc21 [Ia-65]	27
Cc1ccc(S(=O)(=O)N(C)C2CCc3c(c4ccccc4n3CC(=O)O)C2)cc1 (single isomer, unassigned; (+)) [(+)-Ib-27]	6.2

Which measured IC50 value corresponds to Cc1c(C(C)CNS(=O)(=O)c2ccc(F)cc2)c2ccccc2n1CC(=O)O (stereo not shown) [If-4] ? 16
